IC50 values by entry
# MEASUREMENT_TARGET: IP receptor (Homo sapiens, UniProt P43119)
# Construct: HEL cells were collected with centrifugation and washed with cAMP assay buffer
# Sequence (P43119 whole entry): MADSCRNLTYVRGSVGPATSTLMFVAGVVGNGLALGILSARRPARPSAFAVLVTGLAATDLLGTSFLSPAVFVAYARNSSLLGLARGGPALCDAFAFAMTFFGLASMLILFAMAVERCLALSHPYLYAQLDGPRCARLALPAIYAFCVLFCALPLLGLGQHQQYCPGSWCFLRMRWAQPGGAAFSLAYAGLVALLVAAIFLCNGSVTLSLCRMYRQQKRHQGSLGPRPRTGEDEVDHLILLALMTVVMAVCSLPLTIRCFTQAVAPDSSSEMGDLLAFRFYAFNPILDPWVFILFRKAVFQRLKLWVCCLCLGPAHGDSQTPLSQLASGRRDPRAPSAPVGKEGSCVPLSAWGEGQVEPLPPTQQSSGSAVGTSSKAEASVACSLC
# PROTOCOL_DETAILS: Iloprost-induced cAMP production assay in HEL cells (Assay 2)
# PROTOCOL_CONDITIONS: read-out: Activity grade assay 2

Please report the recorded IC50 for O=C(NC(Cc1c[nH]c2ncccc12)C(=O)O)c1ccc2cc(OCc3ccccc3)ccc2c1 (stereo not shown) [Example 1-80] .
< 100 nM

Same for O=C(NC(Cc1ccccc1)C(=O)O)c1ccc2cc(OCc3ccncc3)ccc2c1 (stereo not shown) [Example 1-12]
< 100 nM

# repeat for O=C(NC(Cc1ccc(F)cc1)C(=O)O)c1ccc2cc(OCc3ccccc3)ccc2c1 (stereo not shown) [Example 1-22]
< 100 nM

Likewise for O=C(NC(Cc1ccc(N2CCOCC2)cc1)C(=O)O)c1ccc2cc(OCc3ccccc3)ccc2c1 (stereo not shown) [Example 1-76] ?
> 1000 nM

Can you handle O=C(NC(Cc1ccccc1)C(=O)O)c1ccc2cc(OCc3cccc(Cl)c3Cl)ccc2c1 (stereo not shown) [Example 1-33] next?
< 100 nM

Next compound up: O=C(NC(Cc1ccccc1)C(=O)O)c1ccc2cc(OCc3cccc(C(F)(F)F)c3)ccc2c1 (stereo not shown) [Example 1-27]
> 1000 nM

Can you check CCCOc1cccc(COc2ccc3cc(C(=O)NC(Cc4ccccc4)C(=O)O)ccc3c2)c1 (stereo not shown) [Example 1-92] next?
100 to 1000 nM

What do you have for O=C(NC(Cc1ccccc1)C(=O)O)c1ccc2cc(OCc3ccc(Cl)cc3Cl)ccc2c1 (stereo not shown) [Example 1-42] ?
> 1000 nM

###

Quick list: melting point per entry.

Completed entries (count: 4):
INSERT INTO results (compound, result) VALUES
  ('Cc1cccc(COc2ccc3cc(C(=O)NC(Cc4ccccc4)C(=O)O)ccc3c2)c1 (centres unmarked)', '184 to 185 °C'),
  ('O=C(NC(Cc1ccccc1)C(=O)O)c1ccc2cc(OCc3cccc(F)c3)ccc2c1 (centres unmarked)', '197 to 199 °C'),
  ('O=C(NC(Cc1ccc(-c2ccncc2)cc1)C(=O)O)c1ccc2cc(OCc3ccccc3)ccc2c1 (centres unmarked)', '247 to 249 °C (dec.)'),
  ('O=C(NC(Cc1ccccc1)C(=O)O)c1ccc2cc(OCc3ccccc3F)ccc2c1 (centres unmarked)', '180 to 182 °C');

Next item in the queue.
Recorded melting point for O=C(NC(Cc1ccccc1)C(=O)O)c1ccc2cc(OCc3ccc[n+]([O-])c3)ccc2c1 (centres unmarked) , please?
252 °C (dec.)

###

# MEASUREMENT_TARGET: IP receptor (Homo sapiens)
# Construct: HEL cells were collected with centrifugation and washed with cAMP assay buffer
# PROTOCOL_DETAILS: Iloprost-induced cAMP production assay in HEL cells (Assay 2)
# PROTOCOL_CONDITIONS: read-out: Activity grade assay 2
MEASUREMENT_NAME: IC50

In the examples that follow, each entry is paired with its recorded IC50.
INSERT INTO assay_data (compound, result) VALUES
  ('O=C(NC(Cc1ccccc1)C(=O)O)c1ccc2cc(OCc3ccc(Br)cc3)ccc2c1 (stereo not drawn)', '> 1000 nM'),
  ('O=C(NC(Cc1ccc(C(F)(F)F)cc1)C(=O)O)c1ccc2cc(OCc3ccccc3)ccc2c1 (stereo not drawn)', '< 100 nM'),
  ('Cc1ccc(COc2ccc3cc(C(=O)NC(Cc4ccccc4)C(=O)O)ccc3c2)cc1 (stereo not drawn)', '100 to 1000 nM'),
  ('O=C(NC(Cc1cccc(F)c1)C(=O)O)c1ccc2cc(OCc3ccccc3)ccc2c1 (stereo not drawn)', '< 100 nM'),
  ('Cc1c(COc2ccc3cc(C(=O)NC(Cc4ccccc4)C(=O)O)ccc3c2)cccc1[N+](=O)[O-] (stereo not drawn)', '100 to 1000 nM');

For "O=C(N[C@H](Cc1ccccc1)C(=O)O)c1ccc2cc(OCc3ccccc3)ccc2c1" , what is its reported IC50?
< 100 nM

Another compound to check: O=C(NC(Cc1ccc([N+](=O)[O-])cc1)C(=O)O)c1ccc2cc(OCc3ccccc3)ccc2c1 (stereo not drawn)
< 100 nM

Next: O=C(NC(Cc1c[nH]c2ccccc12)C(=O)O)c1ccc2cc(OCc3ccccc3)ccc2c1 (stereo not drawn)
< 100 nM

O=C(NC(Cc1cccc(O)c1)C(=O)O)c1ccc2cc(OCc3ccccc3)ccc2c1 (stereo not drawn) ?
< 100 nM
